# testedSystem: Cannabinoid receptor 1 (Homo sapiens) (UniProt P21554)
# Sequence (P21554 whole entry): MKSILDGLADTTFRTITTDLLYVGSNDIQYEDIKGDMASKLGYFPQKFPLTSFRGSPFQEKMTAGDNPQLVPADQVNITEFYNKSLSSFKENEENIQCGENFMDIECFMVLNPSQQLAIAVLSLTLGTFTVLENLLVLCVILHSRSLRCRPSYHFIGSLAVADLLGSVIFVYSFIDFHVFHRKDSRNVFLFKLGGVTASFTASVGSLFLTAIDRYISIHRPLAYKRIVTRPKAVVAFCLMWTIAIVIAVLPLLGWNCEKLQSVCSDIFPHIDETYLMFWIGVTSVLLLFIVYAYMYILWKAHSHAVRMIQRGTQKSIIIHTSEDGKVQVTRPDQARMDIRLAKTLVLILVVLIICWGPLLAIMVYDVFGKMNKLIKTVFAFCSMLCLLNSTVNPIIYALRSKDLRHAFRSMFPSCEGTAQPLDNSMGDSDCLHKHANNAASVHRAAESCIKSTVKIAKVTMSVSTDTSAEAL
# procedureDetails: Antagonist activity at human CBR1 assessed as [35S]GTPgammaS binding at 10 uM by radiometric assay relative to control
# Set-up: scale not given: the % may be the effect or the level left

{"structure": "NS(=O)(=O)c1ccc(NC(=S)NC(=O)c2ccc(-c3ccccc3)cc2)cc1", "unitString": "%", "Activity": 119}
{"structure": "O=C(NC(=S)Nc1ccc(S(=O)(=O)NCc2ccco2)cc1)c1ccc(-c2ccccc2)cc1", "unitString": "%", "Activity": 91}
{"structure": "CCCNS(=O)(=O)c1ccc(NC(=S)NC(=O)c2ccc(-c3ccccc3)cc2)cc1", "unitString": "%", "Activity": 91}
{"structure": "O=C(NC(=S)Nc1ccc(S(=O)(=O)NCc2ccccc2)cc1)c1ccc(-c2ccccc2)cc1", "unitString": "%", "Activity": 94}
{"structure": "COc1ccc(CNS(=O)(=O)c2ccc(NC(=S)NC(=O)c3ccc(-c4ccccc4)cc3)cc2)cc1", "unitString": "%", "Activity": 99}
{"structure": "O=C(NC(=S)Nc1ccc(S(=O)(=O)NCc2ccc(I)cc2)cc1)c1ccc(-c2ccccc2)cc1", "unitString": "%", "Activity": 98}
{"structure": "COc1ccc(C(=O)NC(=S)Nc2ccc(S(=O)(=O)NC(C)C)cc2)cc1", "unitString": "%", "Activity": 95}
{"structure": "O=C(NC(=S)Nc1ccc(S(=O)(=O)NCCc2c[nH]c3ccccc23)cc1)c1ccc(-c2ccccc2)cc1", "unitString": "%", "Activity": 94}
{"structure": "O=C(NCc1ccccc1)c1ccc(NC(=S)NC(=O)c2ccc(-c3ccccc3)cc2)cc1", "unitString": "%", "Activity": 91}
{"structure": "CC(=O)NS(=O)(=O)c1ccc(NC(=S)NC(=O)c2ccc(C(C)C)cc2)cc1", "unitString": "%", "Activity": 98}
{"structure": "CCCCc1ccc(NS(=O)(=O)c2ccc(NC(=S)NC(=O)c3ccc(-c4ccccc4)cc3)cc2)cc1", "unitString": "%", "Activity": 78}
{"structure": "C=CCNS(=O)(=O)c1ccc(NC(=S)NC(=O)c2ccc(-c3ccccc3)cc2)cc1", "unitString": "%", "Activity": 94}
{"structure": "O=C(NC(=S)Nc1ccc(S(=O)(=O)NCCc2ccccc2)cc1)c1ccc(-c2ccccc2)cc1", "unitString": "%", "Activity": 91}

====

# Activity listing for each entry below
# testedSystem: Fatty-acid amide hydrolase 1 (Homo sapiens) (UniProt O00519)
# Sequence (O00519 whole entry): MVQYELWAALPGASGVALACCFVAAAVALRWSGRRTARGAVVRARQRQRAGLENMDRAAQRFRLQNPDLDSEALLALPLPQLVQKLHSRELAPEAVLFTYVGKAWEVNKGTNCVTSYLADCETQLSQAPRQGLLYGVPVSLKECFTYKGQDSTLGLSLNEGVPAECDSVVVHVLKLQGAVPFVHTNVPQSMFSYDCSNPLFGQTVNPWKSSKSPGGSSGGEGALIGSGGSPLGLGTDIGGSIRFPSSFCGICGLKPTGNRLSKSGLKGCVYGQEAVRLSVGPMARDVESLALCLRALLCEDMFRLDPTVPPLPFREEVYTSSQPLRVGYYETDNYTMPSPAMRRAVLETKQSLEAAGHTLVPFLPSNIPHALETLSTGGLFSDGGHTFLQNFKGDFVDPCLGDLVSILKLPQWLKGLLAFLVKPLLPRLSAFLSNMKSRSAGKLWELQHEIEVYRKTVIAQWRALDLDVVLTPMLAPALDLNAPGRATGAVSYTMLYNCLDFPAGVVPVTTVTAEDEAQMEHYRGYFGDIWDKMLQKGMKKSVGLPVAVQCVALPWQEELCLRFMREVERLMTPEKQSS
# procedureDetails: Inhibition of human FAAH expressed in African green monkey COS-7 cell membranes using [3H]-AEA as substrate assessed as residual activity at 10 uM preincubated for 10 mins followed by substrate addition measured after 10 mins by liquid scintillation counting analysis relative to control
reportedMetric: Activity (%)

{"structure": "CC(C)NS(=O)(=O)c1ccc(NC(=S)NC(=O)c2ccc(-c3ccccc3)cc2)cc1", "unitString": "%", "measuredNumber": 87}
{"structure": "COc1ccc(CNS(=O)(=O)c2ccc(NC(=S)NC(=O)c3ccc(-c4ccccc4)cc3)cc2)cc1", "unitString": "%", "measuredNumber": 94}
{"structure": "C=CCN(CC=C)S(=O)(=O)c1ccc(NC(=S)NC(=O)c2ccc([N+](=O)[O-])cc2)cc1", "unitString": "%", "measuredNumber": 97}
{"structure": "CC(=O)NS(=O)(=O)c1ccc(NC(=S)NC(=O)c2ccc(C(C)C)cc2)cc1", "unitString": "%", "measuredNumber": 103}
{"structure": "O=C(NC(=S)Nc1ccc(S(=O)(=O)NCc2ccccc2)cc1)c1ccc(-c2ccccc2)cc1", "unitString": "%", "measuredNumber": 106}
{"structure": "O=C(NC(=S)Nc1ccc(S(=O)(=O)NCc2ccc(F)cc2)cc1)c1ccc(-c2ccccc2)cc1", "unitString": "%", "measuredNumber": 100}
{"structure": "O=C(NC(=S)Nc1ccc(S(=O)(=O)NCCc2c[nH]c3ccccc23)cc1)c1ccc(-c2ccccc2)cc1", "unitString": "%", "measuredNumber": 85}
{"structure": "O=C(NC(=S)Nc1ccc(S(=O)(=O)NCc2ccc(I)cc2)cc1)c1ccc(-c2ccccc2)cc1", "unitString": "%", "measuredNumber": 93}
{"structure": "CN1CCN(S(=O)(=O)c2ccc(NC(=S)NC(=O)c3ccc(-c4ccccc4)cc3)cc2)CC1", "unitString": "%", "measuredNumber": 101}
{"structure": "C=CCNS(=O)(=O)c1ccc(NC(=S)NC(=O)c2ccc(-c3ccccc3)cc2)cc1", "unitString": "%", "measuredNumber": 78}
{"structure": "NS(=O)(=O)c1ccc(NC(=S)NC(=O)c2ccc(-c3ccccc3)cc2)cc1", "unitString": "%", "measuredNumber": 34}
{"structure": "CCCNS(=O)(=O)c1ccc(NC(=S)NC(=O)c2ccc(-c3ccccc3)cc2)cc1", "unitString": "%", "measuredNumber": 96}
{"structure": "O=C(NCCc1ccccc1)c1ccc(NC(=S)NC(=O)c2ccc(-c3ccccc3)cc2)cc1", "unitString": "%", "measuredNumber": 85}
{"structure": "Cc1ccc(C(=O)NC(=S)Nc2ccc(S(=O)(=O)NC(C)(C)C)cc2)cc1", "unitString": "%", "measuredNumber": 103}
{"structure": "CC(=O)NS(=O)(=O)c1ccc(NC(=S)NC(=O)c2cccc3ccccc23)cc1", "unitString": "%", "measuredNumber": 107}
{"structure": "O=C(NC(=S)Nc1ccc(S(=O)(=O)Nc2ccccc2)cc1)c1ccc(-c2ccccc2)cc1", "unitString": "%", "measuredNumber": 103}
{"structure": "CCCCc1ccc(NS(=O)(=O)c2ccc(NC(=S)NC(=O)c3ccc(-c4ccccc4)cc3)cc2)cc1", "unitString": "%", "measuredNumber": 95}
{"structure": "O=C(NC(=S)Nc1ccc(S(=O)(=O)NCc2ccco2)cc1)c1ccc(-c2ccccc2)cc1", "unitString": "%", "measuredNumber": 91}

====

# testedSystem: Lysophosphatidylserine lipase ABHD12 (Homo sapiens)
# procedureDetails: Inhibition of human ABHD12 expressed in […] cells using 2-AG as substrate assessed as glycerol liberation at 10 uM preincubated for 30 mins followed by 2-AG addition measured for 90 mins by fluorescent glycerol assay relative to control
# Type: cell-based
# Set-up: scale not given: the % may be the effect or the level left
reportedMetric: Activity (%)

{"structure": "C=CCN(CC=C)S(=O)(=O)c1ccc(NC(=S)NC(=O)c2ccc([N+](=O)[O-])cc2)cc1", "unitString": "%", "measuredNumber": 62}
{"structure": "CN1CCN(S(=O)(=O)c2ccc(NC(=S)NC(=O)c3ccc(-c4ccccc4)cc3)cc2)CC1", "unitString": "%", "measuredNumber": 81}
{"structure": "CC(C)CNS(=O)(=O)c1ccc(NC(=S)NC(=O)c2ccc(-c3ccccc3)cc2)cc1", "unitString": "%", "measuredNumber": 65}

====

# testedSystem: Cannabinoid receptor 2 (Homo sapiens)
# procedureDetails: Antagonist activity at human CBR2 assessed as [35S]GTPgammaS binding at 10 uM by […] assay relative to control
# Type: functional
# Set-up: scale not given: the % may be the effect or the level left
reportedMetric: Activity (%)

{"structure": "C=CCN(CC=C)S(=O)(=O)c1ccc(NC(=S)NC(=O)c2ccc(-c3ccccc3)cc2)cc1", "measuredNumber": 105}
{"structure": "O=C(NC(=S)Nc1ccc(S(=O)(=O)Nc2ccccc2)cc1)c1ccc(-c2ccccc2)cc1", "measuredNumber": 96}
{"structure": "O=C(NCc1ccccc1)c1ccc(NC(=S)NC(=O)c2ccc(-c3ccccc3)cc2)cc1", "measuredNumber": 88}
{"structure": "O=C(NC(=S)Nc1ccc(S(=O)(=O)Nc2ccc(Cl)cc2)cc1)c1ccc(-c2ccccc2)cc1", "measuredNumber": 101}
{"structure": "O=C(NC(=S)Nc1ccc(S(=O)(=O)NCCc2ccccc2)cc1)c1ccc(-c2ccccc2)cc1", "measuredNumber": 103}
{"structure": "O=C(NC(=S)Nc1ccc(S(=O)(=O)NCc2ccccc2)cc1)c1ccc(-c2ccccc2)cc1", "measuredNumber": 83}
{"structure": "O=C(NC(=S)Nc1ccc(S(=O)(=O)NCc2ccco2)cc1)c1ccc(-c2ccccc2)cc1", "measuredNumber": 99}
{"structure": "C=CCNS(=O)(=O)c1ccc(NC(=S)NC(=O)c2ccc(-c3ccccc3)cc2)cc1", "measuredNumber": 81}
{"structure": "Cc1ccc(C(=O)NC(=S)Nc2ccc(S(=O)(=O)NC(C)C)cc2)c(Br)c1", "measuredNumber": 100}
{"structure": "O=C(NC(=S)Nc1ccc(S(=O)(=O)NCCc2c[nH]c3ccccc23)cc1)c1ccc(-c2ccccc2)cc1", "measuredNumber": 106}
{"structure": "O=C(NC(=S)Nc1ccc(S(=O)(=O)NCc2ccc(F)cc2)cc1)c1ccc(-c2ccccc2)cc1", "measuredNumber": 88}
{"structure": "CC(C)NS(=O)(=O)c1ccc(NC(=S)NC(=O)c2ccc(-c3ccccc3)cc2)cc1", "measuredNumber": 86}
{"structure": "CC(=O)NS(=O)(=O)c1ccc(NC(=S)NC(=O)c2ccc(C(C)C)cc2)cc1", "measuredNumber": 92}
{"structure": "CCCNS(=O)(=O)c1ccc(NC(=S)NC(=O)c2ccc(-c3ccccc3)cc2)cc1", "measuredNumber": 85}
{"structure": "O=C(NC(=S)Nc1ccc(S(=O)(=O)NCc2ccc(I)cc2)cc1)c1ccc(-c2ccccc2)cc1", "measuredNumber": 95}
{"structure": "NS(=O)(=O)c1ccc(NC(=S)NC(=O)c2ccc(-c3ccccc3)cc2)cc1", "measuredNumber": 89}
{"structure": "CN(C)S(=O)(=O)c1ccc(NC(=S)NC(=O)c2ccc(-c3ccccc3)cc2)cc1", "measuredNumber": 96}
{"structure": "CCCCc1ccc(NS(=O)(=O)c2ccc(NC(=S)NC(=O)c3ccc(-c4ccccc4)cc3)cc2)cc1", "measuredNumber": 100}
{"structure": "Cc1ccc(CNS(=O)(=O)c2ccc(NC(=S)NC(=O)c3ccc(-c4ccccc4)cc3)cc2)cc1", "measuredNumber": 103}
{"structure": "CC(=O)NS(=O)(=O)c1ccc(NC(=S)NC(=O)c2cccc3ccccc23)cc1", "measuredNumber": 97}
{"structure": "COc1ccc(CNS(=O)(=O)c2ccc(NC(=S)NC(=O)c3ccc(-c4ccccc4)cc3)cc2)cc1", "measuredNumber": 101}
{"structure": "Cc1ccc(C(=O)NC(=S)Nc2ccc(S(=O)(=O)NC(C)(C)C)cc2)cc1", "measuredNumber": 96}
{"structure": "CC(C)CNS(=O)(=O)c1ccc(NC(=S)NC(=O)c2ccc(-c3ccccc3)cc2)cc1", "measuredNumber": 86}
{"structure": "O=C(NCCc1ccccc1)c1ccc(NC(=S)NC(=O)c2ccc(-c3ccccc3)cc2)cc1", "measuredNumber": 103}
{"structure": "CN1CCN(S(=O)(=O)c2ccc(NC(=S)NC(=O)c3ccc(-c4ccccc4)cc3)cc2)CC1", "measuredNumber": 95}
{"structure": "C=CCN(CC=C)S(=O)(=O)c1ccc(NC(=S)NC(=O)c2ccc([N+](=O)[O-])cc2)cc1", "measuredNumber": 105}
{"structure": "COc1ccc(C(=O)NC(=S)Nc2ccc(S(=O)(=O)NC(C)C)cc2)cc1", "measuredNumber": 92}
